Tested on: SR
experiment.summary: Growth inhibition of human SR cells at 10^-5 M relative to control
Type: functional
particulars: values are per cent of control

{"smiles.code": "OC[C@H]1[C@@H]2C[C@H](n3cnc4c(NC5CCCC5)ncnc43)[C@H]1C[C@@H]2Cl", "growth, % of control at 10 µM [%]": 86.5}
{"smiles.code": "CCN(CC)CCCNc1ncnc2c1ncn2[C@H]1C[C@H]2[C@H](CO)[C@@H]1C[C@@H]2Cl", "growth, % of control at 10 µM [%]": 85.8}
{"smiles.code": "CN(C)c1ncnc2c1ncn2[C@H]1C[C@@H]2C=C[C@H]1[C@H]2CO", "growth, % of control at 10 µM [%]": 82.2}
{"smiles.code": "OC[C@H]1[C@@H]2C[C@H](n3cnc4c(NCCc5ccccc5)ncnc43)[C@H]1C[C@@H]2Cl", "growth, % of control at 10 µM [%]": 84.1}
{"smiles.code": "Nc1ncnc2c1ncn2[C@H]1C[C@H]2[C@H](CO)[C@@H]1C[C@@H]2Cl", "growth, % of control at 10 µM [%]": 88.9}
